The following molecules are shown together with reported NanoBRET Fold Response values.
target: PTGIR (Homo sapiens); construct: purchased Promega (in-house HiBiT-GPCR construct library, NanoBRET); test: NanoBRET screen HiBiT-PTGIR in HEK293; assay type: binding; conditions: PTGIR; tracer 1μM
Sequence (P43119 whole entry): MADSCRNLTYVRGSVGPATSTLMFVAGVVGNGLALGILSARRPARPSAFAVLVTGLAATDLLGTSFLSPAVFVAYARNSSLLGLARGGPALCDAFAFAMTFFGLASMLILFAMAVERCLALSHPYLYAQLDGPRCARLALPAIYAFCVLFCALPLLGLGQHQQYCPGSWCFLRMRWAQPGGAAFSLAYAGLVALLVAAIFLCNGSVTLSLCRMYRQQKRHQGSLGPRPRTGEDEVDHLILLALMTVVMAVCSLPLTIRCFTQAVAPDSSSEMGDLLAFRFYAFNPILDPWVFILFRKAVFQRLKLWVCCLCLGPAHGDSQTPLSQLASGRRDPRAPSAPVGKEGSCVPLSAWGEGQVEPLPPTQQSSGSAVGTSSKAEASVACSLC

Reference set (4 entries):
O=C(CCc1ccc2n1[B-](F)(F)[N+]1=C(c3ccc[nH]3)C=CC1=C2)NCCOCCOCCNC(=O)OCCOCCN1CCN(C2=Nc3ccccc3Sc3ccccc32)CC1 [Quetiapine-a-2-NB590] = 0.94
Cc1cc2c(s1)Nc1ccccc1N=C2N1CCN(CCCNC(=O)CCOCCOCCOCCOCCNC(=O)CCc2ccc3n2[B-](F)(F)[N+]2=C(c4ccc[nH]4)C=CC2=C3)CC1 [Olanzapine-a-2-NB590] = 0.98
Cc1nc2n(c(=O)c1CCN1CCC(c3noc4cc(F)ccc34)CC1)CCCC2OC(=O)NCCOCCOCCOCCOCCNC(=O)CCc1ccc2n1[B-](F)(F)[N+]1=C(c3ccc[nH]3)C=CC1=C2 (centres unmarked) [Risperidone-2-NB590] = 1.01
N#CN=C(NCCCOc1cccc(CN2CCCCC2)c1)NCCNC(=O)CCOCCOCCOCCOCCNC(=O)CCc1ccc2n1[B-](F)(F)[N+]1=C(c3ccc[nH]3)C=CC1=C2 [Aminopotentidine-2-NB590] = 1.03

// moving on: another record for NanoBRET Fold Response
Request: Hi! What's the reported NanoBRET Fold Response for CC(C)N(CC[C@H](c1ccccc1)c1cc(CCNC(=O)CCOCCOCCOCCOCCNC(=O)CCc2ccc3n2[B-](F)(F)[N+]2=C(c4ccc[nH]4)C=CC2=C3)ccc1O)C(C)C [Tolterodine-2-NB590] on PTGIR (Homo sapiens)?
Result: 1.12

---

Target: PTGER4 (Homo sapiens, UniProt P35408)
Construct: purchased Promega (in-house HiBiT-GPCR construct library, NanoBRET)
Sequence (P35408 whole entry): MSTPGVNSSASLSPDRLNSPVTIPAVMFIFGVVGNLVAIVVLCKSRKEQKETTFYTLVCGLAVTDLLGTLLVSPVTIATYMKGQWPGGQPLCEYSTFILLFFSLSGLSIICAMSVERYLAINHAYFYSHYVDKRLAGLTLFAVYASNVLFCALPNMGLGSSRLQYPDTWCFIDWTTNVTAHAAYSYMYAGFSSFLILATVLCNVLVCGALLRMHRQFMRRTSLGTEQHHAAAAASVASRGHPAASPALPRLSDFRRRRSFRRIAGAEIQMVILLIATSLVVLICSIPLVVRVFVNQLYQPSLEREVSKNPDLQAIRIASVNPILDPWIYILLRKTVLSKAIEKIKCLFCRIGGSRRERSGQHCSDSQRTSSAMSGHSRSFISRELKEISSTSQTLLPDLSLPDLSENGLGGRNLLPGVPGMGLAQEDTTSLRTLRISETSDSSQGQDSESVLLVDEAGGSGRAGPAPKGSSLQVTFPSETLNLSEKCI
Assay: NanoBRET screen HiBiT-PTGER4 in HEK293
Type: binding
Conditions: PTGER4; tracer 0.1μM
Experimental: Each tracer candidate was screened across the entire library of HiBiT-GPCR constructs using NanoBRET as the detection modality. As depicted in Figure 4A, the specificity of interactions was evaluated through decrease in BRET due to competitive displacement of a bound tracer by excess parental compound. Each tracer was analyzed for binding to each HiBiT-GPCR fusion in the absence and in the presence of competing parental compound. […]
The following compounds are shown together with reported NanoBRET Fold Response values.
No unit in the answer, only the number.

CCCn1c(=O)c2[nH]c(-c3ccc(OCC(=O)NCCNC(=O)CCOCCNC(=O)c4ccc(CNC(=O)CCc5ccc6n5[B-](F)(F)[N+]5=C(c7ccc[nH]7)C=CC5=C6)cc4)cc3)nc2n(CCC)c1=O = 1.15

Request: Which NanoBRET Fold Response is reported for this compound? O=C(CCc1ccc2n1[B-](F)(F)[N+]1=C(c3ccc[nH]3)C=CC1=C2)NCc1ccc(C(=O)NCCOCCC(=O)N[C@@H]2CC[C@@]3(O)[C@H]4Cc5ccc(O)c6c5[C@@]3(CCN4CC3CC3)[C@H]2O6)cc1 [Naltrexone-3-NB590]
Result: 0.94

Request: Would you mind doing Cc1cc2c(s1)Nc1ccccc1N=C2N1CCN(CCCNC(=O)CCOCCOCCOCCOCCNC(=O)CCc2ccc3n2[B-](F)(F)[N+]2=C(c4ccc[nH]4)C=CC2=C3)CC1 as well?
Result: 1.02
